Sourced from PubChem BioAssay (NCI)

Reported growth is given for each of the following compounds.
Tested on: UO-31 renal
Assay: NCI-60 one-dose screen, 48 h (100 = growth as untreated, 0 = no growth, -100 = all killed)
Settings: 10 µM
The panel holds about 83,000 compounds, 20% with a hit somewhere; the sample as a whole holds those more often.

COMPOUND	growth (%)
COc1cc(C2C(C#N)=C(N)Oc3cc(O)ccc32)cc(OC)c1OC (stereo not given)	43
Nc1ncnc2c1ncn2C1(CO)OCC(O)C(O)C1O (stereo not given)	87.9
O=C1c2c(c3c4ccccc4n(CCCCCCN4CCOCC4)c3c3[nH]c4ccccc4c23)C(=O)N1O	9.13
Cn1cnc([N+](=O)[O-])c1/C=C1\Oc2ccc(Br)cc2C1=O	67.6
C(=N\Nc1ncnc2sc3c(c12)CCNC3)/c1cccc2ccccc12	74.4
CC(=O)/C(=C/c1ccc(Br)cc1)C(=O)c1ccccc1	57.4
COc1ccc(/C=C2/SC(=S)NC2=O)c(OC)c1OC	42.5
CN1C(C(=O)Nc2ccccn2)=C(O)c2sc(Cl)cc2S1(=O)=O	78.8
S=c1cnc2ccccc2[nH]1	76.6
OCC1OC(n2ccc3c(NO)ncnc32)C(O)C1O (stereo not given)	-25
